Attribution: patent US20170002074A1

System Under Test: T1, Human CD33 (human, UniProt P20138 18-364)
T1 construct: One molecule is used for recombinant CD33 on HEK293AD/293 cells and for endogenous human CD33 on tumor or myeloid cells; the cell is named under assay; also called huCD33; hu CD33
Assay Info: Scatchard analysis, [125I]-labeled antibody competed by unlabeled antibody, HEK293AD cells stably expressing human CD33
Test Readout: Kd (nM)
Use nM as the unit, but write only the number.

33F9 (antibody, V domains shown) VH: EVQLQQSGPELVKPGASVKMSCKASGYTFTSYVMHWMKQKPGQGLEWIGYINPYNDGTKYNDKFKGKATLTSDKSSSTAYMELSSLTSEDSAVYYCARGSNYEDFAMDYRGQGTSVTVSS VL: DIVMTQSPASQSASLGESVTITCLASQTIGTWLAWYQQKPGKSPQLLIYAATTLADGVPSRFSGSGSGTKFSFKISSLQAEDFVSYYCQQLYSTPLTFGGGTKVEIK :: 8.7

Using the record for 15G15.83 (antibody, V domains shown, Variant of 15G15) VH: QVQLVQSGAEVKKPGSSVKVSCKASGGIFSNHAISWVRQAPGQGLEWMGGIIPIFGTANYAQKFQGRVTITADESTSTAFMELSSLRSEDTAVYYCAREWADVFDIWGQGTMVTVSS VL: EIVLTQSPLSLPVTPGEPASISCRSSQSLLHSNGYNYLDWYLQKPGQSPQLLIYLGAYTVSGVPDRFSGSGSGTDFTLKISRVEAEDVGVYYCMQALQTPWTFGQGTKVEIK , report its Kd.
0.5
